Assay: 19F NMR solvolytic stability of difluoro-dioxaborinins in water/DMSO
Type: physicochemical
Settings: 5.55 M H2O
Protocol: Radioactive TLC and […]/^19F NMR studies were used to determine the solvolytic stability of difluoro-dioxaborinins. Some difluoro-dioxaborinins are insoluble in water; therefore, solvolytic studies on these compounds were determined in 10% H2O/90% DMSO (5.55 M H2O, deionized). […]
fold slower solvolysis (more stable) than DK-1 vs 2: at or above is satisfied, below is not satisfied.

* COc1ccc(C2=CC(c3ccc(C(C)(C)C)cc3)=[O+][B-](F)(F)O2)cc1 | satisfied
* COc1ccc(C2=CC(c3ccc(OC)cc3)=[O+][B-](F)(F)O2)cc1 | satisfied
* COc1cc(/C=C/C2=CC(/C=C/c3ccc(OC(=O)c4c(F)cc(F)cc4F)c(OC)c3)=[O+][B-](F)(F)O2)ccc1OC(=O)c1c(F)cc(F)cc1F | not satisfied
* COc1cc(/C=C/C2=CC(/C=C/c3ccc(OC(=O)CCN4C(=O)C=CC4=O)c(OC)c3)=[O+][B-](F)(F)O2)ccc1OC(=O)CCN1C(=O)C=CC1=O | satisfied
* F[B-]1(F)OC(c2ccccc2)=CC(c2ccccc2)=[O+]1 | not satisfied

* * *

Entries and their Fold increase in stability (90% → 10% H2O)
Test: 19F NMR solvolytic stability of difluoro-dioxaborinins in water/DMSO
Assay type: physicochemical
Conditions: 10% water/DMSO vs 90% water/DMSO
Description: Radioactive TLC and […]/^19F NMR studies were used to determine the solvolytic stability of difluoro-dioxaborinins. Some difluoro-dioxaborinins are insoluble in water; therefore, solvolytic studies on these compounds were determined in 10% H2O/90% DMSO (5.55 M H2O, deionized). […]
ASSAY READOUT: Fold increase in stability (90% → 10% H2O)

• CC1=[O+][B-](F)(F)OC(C)=C1C [DK-2] = 3.2
• CC1=C2CCCCC2=[O+][B-](F)(F)O1 [DK-15] = 5.0
• CCC1=C(C)O[B-](F)(F)[O+]=C1C [DK-3] = 3.5
• CCOC(=O)CCC1=C(C)O[B-](F)(F)[O+]=C1C [DK-6] = 4.7

* * *

experiment: Optical properties (absorbance, fluorescence emission, quantum yield); type: physicochemical
Stokes Shift vs 6 nm: at or above is Met, below is Not met.

• COc1cc(/C=C/C2=CC(/C=C/c3ccc(OC(=O)c4c(F)cc(F)cc4F)c(OC)c3)=[O+][B-](F)(F)O2)ccc1OC(=O)c1c(F)cc(F)cc1F [6F-Cur-BF2] = Met
• COc1cc(/C=C/C2=CC(/C=C/c3ccc(OC(=O)CCN4C(=O)C=CC4=O)c(OC)c3)=[O+][B-](F)(F)O2)ccc1OC(=O)CCN1C(=O)C=CC1=O [Cur-BF2-2Mal] = Met
• CC1=C2CCCCC2=[O+][B-](F)(F)O1 [DK-15] = Not met
• F[B-]1(F)OC(c2ccccc2)=CC(c2ccccc2)=[O+]1 [DK-13] = Met
• CCC1=C(C)O[B-](F)(F)[O+]=C1C [DK-3] = Not met
• CC1=CC(c2ccccc2)=[O+][B-](F)(F)O1 [DK-14] = Not met
• COc1ccc(C2=CC(c3ccc(OC)cc3)=[O+][B-](F)(F)O2)cc1 [DK-17] = Met
• CC1=[O+][B-](F)(F)OC(C)=C1C [DK-2] = Not met
• COc1ccc(C2=CC(c3ccc(C(C)(C)C)cc3)=[O+][B-](F)(F)O2)cc1 [DK-16] = Met
• COc1cc(/C=C/C(=O)CC(=O)/C=C/c2ccc(O)c(OC)c2)ccc1O [Curcumin, reference compound] = Met
• CC1=CC(C)=[O+][B-](F)(F)O1 [DK-1] = Met
